# maps each entry to its melting point

Example results:
Cc1cc2c(cc1C(=O)N1CCc3c(Cl)cccc3C1)[nH]c(=O)c1cnc(C3CCOCC3)n12	267 °C (dec.)
Cc1cc2c(cc1C(=O)N1Cc3ccccc3C1)[nH]c(=O)c1nnc(C3CCCOC3)n12.Cl (stereo not shown)	303 °C (dec.)
COc1cc2c(cc1C(=O)N1CCc3cc(C4CC4)cnc31)[nH]c(=O)c1cnc(C3CCOCC3)n12	297 °C (dec.)
Cc1cc2c(cc1C(=O)N1Cc3c(F)ccc(F)c3C1)[nH]c(=O)c1cnc(C3CCCOC3)n12 (stereo not shown)	223 to 225 °C

# melting point lookup, item "Cc1cc2c(cc1C(=O)N1CCc3ncccc3C1)[nH]c(=O)c1cnc(C3CCOCC3)n12" 236 to 239 °C

For the compound Cc1cc2c(cc1C(=O)N1CCN(C)C(c3ccccc3)C1)[nH]c(=O)c1cnc(C3CCOCC3)n12 (stereo not shown) , what melting point is on record? 189 to 192 °C

Field request: melting point | item: COC(=O)c1cccc2c1CN(C(=O)c1cc3[nH]c(=O)c4cnc(C5CCOCC5)n4c3cc1C)CC2.Cl [Example 68] 192 to 194 °C

###

Consider the following compounds and their measured melting point readings.

Can you share its melting point? I mean this compound: "Cc1cc2c(cc1C(=O)N1CCc3cc(F)ccc31)[nH]c(=O)c1cnc([C@H]3CC[C@@H](O)CC3)n12.Cl" 200 to 202 °C

// lookup melting point for "Cl.O=C(c1cc2[nH]c(=O)c3cnc(C4CCOCC4)n3c2cc1Cl)N1CCc2cc(Cl)ccc21" 352 °C (dec.)

Fill in the blank: the reported melting point of Cc1ccc2c(c1)CCN2C(=O)c1cc2[nH]c(=O)c3cnc(C4CCCOC4)n3c2cc1C.Cl (stereo not shown) is ____. 204 to 206 °C

Would you mind telling me what melting point value was observed for "Cc1cc2c(cc1C(=O)N1CCc3cc(F)ccc31)[nH]c(=O)c1nnc(C3CCOCC3)n12.Cl" ? 221 to 223 °C

###

Measured melting point by item

Recorded results for 2 compounds are shown here.
O=C(c1cc2[nH]c(=O)c3nnc(C4CCOCC4)n3c2cc1Br)N1Cc2ccccc2C1	350 °C (dec.)
Cc1cc2c(cc1C(=O)N1Cc3c(F)ccc(F)c3C1)[nH]c(=O)c1cnc(C3CCOCC3)n12.Cl	199 to 201 °C (dec.)

Report melting point for Cc1ccc2c(c1)CCN2C(=O)c1cc2[nH]c(=O)c3cnc(C4CCOC4)n3c2cc1C.Cl (centres unmarked) please. 186 to 188 °C (dec.)

Form field: reported melting point of "Cl.O=C(c1cc2[nH]c(=O)c3cnc(C4CCOCC4)n3c2cc1Cl)N1Cc2ccccc2C1" 332 °C (dec.)

# lookup: melting point of "CC(C)c1ncc2c(=O)[nH]c3cc(C(=O)N4CCc5c(Cl)cccc5C4)ccc3n12.Cl" 328 to 329 °C

What value of melting point has been recorded for this entry: "Cc1cc2c(cc1C(=O)N1CCc3cc(Cl)c(F)cc31)[nH]c(=O)c1nnc(C3CCOCC3)n12" 309 to 311 °C

Fill in the blank: the reported melting point of "Cc1cc2c(cc1C(=O)N1Cc3cccc(F)c3C1)[nH]c(=O)c1cnc(C3CCOCC3)n12.Cl" is ____. 201 to 203 °C

Sample "COCc1cc2c(cc1C(=O)N1CCc3cc(Cl)ccc31)[nH]c(=O)c1nnc(C3(C)CCOCC3)n12.Cl" — what was its melting point? 198 to 201 °C

Which value of melting point has been reported for "Cc1cc2c(cc1C(=O)N1CCc3sccc3C1)[nH]c(=O)c1nnc(C3CCOCC3)n12.Cl" in the records? 216 to 219 °C

Tell me the measured melting point of Cc1cc2c(cc1C(=O)N1Cc3cccc(F)c3C1)[nH]c(=O)c1cnc(C3CCOC3)n12.Cl (centres unmarked) , please. 203 to 205 °C

Where these numbers come from: patent US8674096B2
